# pIC50 listing for each entry below
# system-under-test: Sodium-dependent dopamine transporter (Homo sapiens, UniProt Q01959)
# Sequence (Q01959 whole entry): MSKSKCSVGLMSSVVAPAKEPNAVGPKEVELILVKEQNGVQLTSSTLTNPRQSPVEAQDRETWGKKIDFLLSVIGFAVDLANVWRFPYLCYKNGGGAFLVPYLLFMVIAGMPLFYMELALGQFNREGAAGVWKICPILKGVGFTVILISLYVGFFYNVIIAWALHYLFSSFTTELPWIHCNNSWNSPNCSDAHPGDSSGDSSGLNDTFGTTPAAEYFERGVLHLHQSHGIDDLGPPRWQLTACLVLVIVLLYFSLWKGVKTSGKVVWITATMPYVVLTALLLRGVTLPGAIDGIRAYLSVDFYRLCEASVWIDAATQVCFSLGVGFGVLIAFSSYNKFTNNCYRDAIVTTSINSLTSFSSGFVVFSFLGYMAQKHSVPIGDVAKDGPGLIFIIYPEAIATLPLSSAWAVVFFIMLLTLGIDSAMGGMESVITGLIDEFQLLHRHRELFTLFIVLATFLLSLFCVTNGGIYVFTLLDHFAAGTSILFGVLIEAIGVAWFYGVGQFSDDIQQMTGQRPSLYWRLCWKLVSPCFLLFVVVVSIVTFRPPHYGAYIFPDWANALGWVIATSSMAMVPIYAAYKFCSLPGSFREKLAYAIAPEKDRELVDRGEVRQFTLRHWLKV
# method-description: Inhibition of [3H]dopamine uptake in HEK293 cells expressing human dopamine transporter
# Format: functional, cell-based
As a rule, pIC50 stands for the negative log10 of the concentration, concentration in M.

CCOC(=O)C(c1ccccc1)C1CCCCN1 (racemic) ... 7.02

stdin: Sample CCOC(=O)[C@@H](c1ccccc1)[C@@H]1CCCCN1 (stereo in doubt; (-)-2) — what was its pIC50?
stdout: 5.76

---

# pIC50 listing for each entry below
# system-under-test: Sodium-dependent noradrenaline transporter (Homo sapiens, UniProt P23975)
# Sequence (P23975 whole entry): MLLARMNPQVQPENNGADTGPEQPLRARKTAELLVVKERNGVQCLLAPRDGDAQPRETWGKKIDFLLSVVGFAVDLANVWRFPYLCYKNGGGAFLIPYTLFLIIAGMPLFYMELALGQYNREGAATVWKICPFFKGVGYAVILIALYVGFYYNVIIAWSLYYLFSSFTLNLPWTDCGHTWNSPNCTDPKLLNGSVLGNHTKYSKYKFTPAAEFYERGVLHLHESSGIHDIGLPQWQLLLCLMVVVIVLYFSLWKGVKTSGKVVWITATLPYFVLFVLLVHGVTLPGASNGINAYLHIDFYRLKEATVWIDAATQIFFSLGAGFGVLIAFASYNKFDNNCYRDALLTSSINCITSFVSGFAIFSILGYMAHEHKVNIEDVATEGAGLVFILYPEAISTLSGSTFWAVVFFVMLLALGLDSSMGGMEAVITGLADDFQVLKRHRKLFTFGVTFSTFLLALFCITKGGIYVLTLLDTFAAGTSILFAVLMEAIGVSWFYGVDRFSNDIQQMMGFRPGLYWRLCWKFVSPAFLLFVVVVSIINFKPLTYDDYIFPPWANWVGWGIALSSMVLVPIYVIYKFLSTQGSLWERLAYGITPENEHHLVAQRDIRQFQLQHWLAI
# method-description: Displacement of [125I]RTI-55 from human Norepinephrine transporter expressed in HEK293 cells
# Type: cell-based
pIC50: −log10 of the molar value. Where a name gives a salt, the structure may show the parent alone.

COC(=O)C(c1ccccc1)C1CCCCN1 (racemic) [METHYLPHENIDATE HYDROCHLORIDE] ... 6.10
CCOC(=O)C(c1ccccc1)C1CCCCN1 (racemic) ... < 5.14

Let us move to another entry and its pIC50.
stdin: Sample CCOC(=O)[C@@H](c1ccccc1)[C@@H]1CCCCN1 (stereo in doubt; (-)-2) — what was its pIC50?
stdout: < 5.00
